- System: SK-BR-3
- Procedure details: Cytotoxicity against human SKBR3 cells after 72 hrs by celltiter-glo assay
- Format: functional, cell-based
- Condition details: Homo sapiens, SK-BR-3, 72 h
Recorded metric: log10 of IC50 (log10 of the value in nM)
Give log10 of IC50, with IC50 taken in nM.

Sample records with log10 of IC50:
| Compound | System tested | log10 of IC50 |
| --- | --- | --- |
| CO[C@H]1[C@@H](OC)C[C@H](C)CC2=C(NCCN3CCCC3)C(=O)C=C(NC(=O)/C(C)=C/C=C\[C@H](OC)[C@@H](OC(N)=O)/C(C)=C/[C@@H]1C)C2=O (stereo in doubt) | SK-BR-3 | 2.20 |
| CO[C@H]1C[C@H](C)CC2=C(NCCN(C)C)C(=O)C=C(NC(=O)/C(C)=C/C=C\[C@H](OC)[C@@H](OC(N)=O)/C(C)=C/[C@H](C)/C1=N\OCCN(C)C)C2=O (stereo in doubt) | SK-BR-3 | 3.40 |
| C=CCNC1=C2C[C@@H](C)C[C@H](OC)/C(=N/O)[C@@H](C)/C=C(\C)[C@H](OC(N)=O)[C@@H](OC)/C=C\C=C(/C)C(=O)NC(=CC1=O)C2=O | SK-BR-3 | 2.54 |
| CO[C@H]1/C=C\C=C(/C)C(=O)NC2=CC(=O)C(N)=C(C[C@@H](C)C[C@H](OC)[C@H](O)[C@@H](C)/C=C(\C)[C@@H]1OC(N)=O)C2=O (stereo in doubt) | SK-BR-3 | 1.52 |

So what does the record say about log10 of IC50 for CO[C@H]1C[C@H](C)CC2=C(N3CCC3)C(=O)C=C(NC(=O)/C(C)=C/C=C\[C@H](OC)[C@@H](OC(N)=O)/C(C)=C/[C@H](C)/C1=N\O)C2=O ?
2.49

====

- System tested: Heat shock protein HSP 90-beta (Homo sapiens, UniProt P08238)
- Sequence (P08238 whole entry): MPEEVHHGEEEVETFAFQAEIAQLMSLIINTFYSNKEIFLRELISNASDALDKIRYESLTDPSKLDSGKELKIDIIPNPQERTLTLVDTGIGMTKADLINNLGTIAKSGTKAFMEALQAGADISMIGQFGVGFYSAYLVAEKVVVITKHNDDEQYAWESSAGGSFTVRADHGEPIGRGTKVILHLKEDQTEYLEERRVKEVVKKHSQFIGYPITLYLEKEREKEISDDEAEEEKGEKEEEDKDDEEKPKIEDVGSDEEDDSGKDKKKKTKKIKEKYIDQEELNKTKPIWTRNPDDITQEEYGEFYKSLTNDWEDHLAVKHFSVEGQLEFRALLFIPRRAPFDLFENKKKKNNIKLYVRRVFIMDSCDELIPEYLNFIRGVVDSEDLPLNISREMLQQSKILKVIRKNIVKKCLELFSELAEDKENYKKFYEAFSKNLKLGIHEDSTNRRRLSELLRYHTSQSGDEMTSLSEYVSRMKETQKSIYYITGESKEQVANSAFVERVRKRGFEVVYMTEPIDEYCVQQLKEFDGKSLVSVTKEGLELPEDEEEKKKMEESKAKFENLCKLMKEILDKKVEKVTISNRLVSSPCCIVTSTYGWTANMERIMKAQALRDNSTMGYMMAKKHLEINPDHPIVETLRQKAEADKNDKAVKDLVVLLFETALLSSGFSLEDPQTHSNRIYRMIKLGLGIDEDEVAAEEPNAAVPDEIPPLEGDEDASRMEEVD
- Procedure details: Binding affinity to human recombinant HSP90
Recorded metric: pIC50
// returns pIC50 (minus log10 of molar concentration), number only

Lab request: please report pIC50 under test system Heat shock protein HSP 90-beta (Homo sapiens, UniProt P08238) for CO[C@H]1/C=C\C=C(/C)C(=O)NC2=CC(=O)C(NCCN(C)C)=C(C[C@@H](C)C[C@H](OC)[C@H](OC(=O)NN)[C@@H](C)/C=C(\C)[C@@H]1OC(N)=O)C2=O
8.30

====

- Test system: CCRF-CEM
- Procedure details: Cytotoxicity against human CCRF-CEM cells after 72 hrs by celltiter-96 aqueous one solution assay
- Format: functional, cell-based
Recorded metric: IC50 (nM)
Answer format: numeric, nM implied, no suffix.

Below, each entry is followed by its recorded IC50 result.
| Compound | Readout unit | IC50 |
| --- | --- | --- |
| CO[C@H]1[C@@H](OC)C[C@H](C)CC2=C(NCCc3c[nH]cn3)C(=O)C=C(NC(=O)/C(C)=C/C=C\[C@H](OC)[C@@H](OC(N)=O)/C(C)=C/[C@@H]1C)C2=O (stereo in doubt) | nM | 510 |
| CO[C@H]1[C@@H](OC)C[C@H](C)CC2=C(NCCN(C)C)C(=O)C=C(NC(=O)/C(C)=C/C=C\[C@H](OC)[C@@H](OC(N)=O)/C(C)=C/[C@@H]1C)C2=O | nM | 58 |
| CO[C@H]1[C@@H](OC)C[C@H](C)CC2=C(N3CCC3)C(=O)C=C(NC(=O)/C(C)=C/C=C\[C@H](OC)[C@@H](OC(N)=O)/C(C)=C/[C@@H]1C)C2=O (stereo in doubt) | nM | 420 |

Turning to the following compound.
Returns the measured IC50 for the input compound. Input: CO[C@H]1[C@@H](OC)C[C@H](C)CC2=C(NCCF)C(=O)C=C(NC(=O)/C(C)=C/C=C\[C@H](OC)[C@@H](OC(N)=O)/C(C)=C/[C@@H]1C)C2=O (stereo in doubt)
960

====

- Procedure details: Chemical stability assessed as half life at pH 7.75
- Format: physicochemical
- Condition details: buffer
Recorded metric: half-life (h)
// units = h; emit number, no label

# annotated cases, reported half-life shown
| Compound | Readout value |
| --- | --- |
| COC1=C2C[C@@H](C)C[C@H](OC)[C@H](OC(=O)CCN)[C@@H](C)/C=C(\C)[C@H](OC(N)=O)[C@@H](OC)/C=C\C=C(/C)C(=O)NC(=CC1=O)C2=O (stereo in doubt) | 200 |
| CNCCNC1=C2C[C@@H](C)C[C@H](OC)[C@H](OC(=O)CN)[C@@H](C)/C=C(\C)[C@H](OC(N)=O)[C@@H](OC)/C=C\C=C(/C)C(=O)NC(=CC1=O)C2=O (stereo in doubt) | 74 |
| COC1=C2C[C@@H](C)C[C@H](OC)[C@H](OC(=O)CN)[C@@H](C)/C=C(\C)[C@H](OC(N)=O)[C@@H](OC)/C=C\C=C(/C)C(=O)NC(=CC1=O)C2=O (stereo in doubt) | 95 |

Request the reported half-life associated with C=CCNC1=C2C[C@@H](C)C[C@H](OC)[C@H](OC(=O)CN)[C@@H](C)/C=C(\C)[C@H](OC(N)=O)[C@@H](OC)/C=C\C=C(/C)C(=O)NC(=CC1=O)C2=O (stereo in doubt)
78

Entry C=CCNC1=C2C[C@@H](C)C[C@H](OC)[C@H](OC(=O)CCN)[C@@H](C)/C=C(\C)[C@H](OC(N)=O)[C@@H](OC)/C=C\C=C(/C)C(=O)NC(=CC1=O)C2=O (stereo in doubt) : reported half-life = ?
130

====

- System tested: Heat shock protein HSP 90-beta (Homo sapiens, UniProt P08238)
- Procedure details: Binding affinity to human recombinant HSP90
Collected Kd values appear next to each entry.
# number only, unit nM dropped from output

| Molecule | System tested | Readout unit | Kd |
| --- | --- | --- | --- |
| CO[C@H]1[C@@H](OC)C[C@H](C)CC2=C(NCCN3CCCC3)C(=O)C=C(NC(=O)/C(C)=C/C=C\[C@H](OC)[C@@H](OC(N)=O)/C(C)=C/[C@@H]1C)C2=O (stereo in doubt) | Heat shock protein HSP 90-beta (Homo sapiens, UniProt P08238) | nM | 1000 |
| CO[C@H]1C[C@H](C)CC2=C(N3CCC3)C(=O)C=C(NC(=O)/C(C)=C/C=C\[C@H](OC)[C@@H](OC(N)=O)/C(C)=C/[C@H](C)C1=O)C2=O (stereo in doubt) | Heat shock protein HSP 90-beta (Homo sapiens, UniProt P08238) | nM | 6400 |
| CO[C@H]1/C=C\C=C(/C)C(=O)NC2=CC(=O)C(N3CCC3)=C(C[C@@H](C)C[C@H](OC)[C@H](O)[C@@H](C)/C=C(\C)[C@@H]1OC(N)=O)C2=O (stereo in doubt) | Heat shock protein HSP 90-beta (Homo sapiens, UniProt P08238) | nM | 1400 |
| CO[C@H]1/C=C\C=C(/C)C(=O)NC2=CC(=O)C(NCCN(C)C)=C(C[C@@H](C)C[C@H](OC)[C@H](NCC(F)F)[C@@H](C)/C=C(\C)[C@@H]1OC(N)=O)C2=O (stereo in doubt) | Heat shock protein HSP 90-beta (Homo sapiens, UniProt P08238) | nM | 2900 |

Which Kd reading was recorded for the molecule CO[C@H]1[C@@H](OC)C[C@H](C)CC2=C(NCCN3CCC3)C(=O)C=C(NC(=O)/C(C)=C/C=C\[C@H](OC)[C@@H](OC(N)=O)/C(C)=C/[C@@H]1C)C2=O (stereo in doubt) ?
1000

====

Parameter: pKd. Scope: all listed entries.
- System tested: Heat shock protein HSP 90-beta (Homo sapiens)
- Procedure details: Binding affinity to human recombinant HSP90
pKd here: minus log base 10 of the concentration, concentration in moles per litre.

Sample records with pKd:
| Compound | Recorded metric | Readout value |
| --- | --- | --- |
| CO[C@H]1/C=C\C=C(/C)C(=O)NC2=CC(=O)C(NCCN(C)C)=C(C[C@@H](C)C[C@H](OC)[C@H](NCC(F)(F)F)[C@@H](C)/C=C(\C)[C@@H]1OC(N)=O)C2=O (stereo in doubt) | pKd | 5.40 |
| CO[C@H]1/C=C\C=C(/C)C(=O)NC2=CC(=O)C(NCCF)=C(C[C@@H](C)C[C@H](OC)[C@H](O)[C@@H](C)/C=C(\C)[C@@H]1OC(N)=O)C2=O (stereo in doubt) | pKd | 6.10 |
| CO[C@H]1C[C@H](C)CC2=C(NCCN(C)C)C(=O)C=C(NC(=O)/C(C)=C/C=C\[C@H](OC)[C@@H](OC(N)=O)/C(C)=C/[C@H](C)C1=O)C2=O (stereo in doubt) | pKd | 5.74 |
| CO[C@H]1C[C@H](C)CC2=C(NCCF)C(=O)C=C(NC(=O)/C(C)=C/C=C\[C@H](OC)[C@@H](OC(N)=O)/C(C)=C/[C@H](C)C1=O)C2=O (stereo in doubt) | pKd | 5.59 |
| C=CCNC1=C2C[C@@H](C)C[C@H](OC)[C@H](OC)[C@@H](C)/C=C(\C)[C@H](OC(N)=O)[C@@H](OC)/C=C\C=C(/C)C(=O)NC(=CC1=O)C2=O (stereo in doubt) | pKd | 5.55 |

Data request, read-out pKd, for CO[C@H]1[C@@H](OC)C[C@H](C)CC2=C(N)C(=O)C=C(NC(=O)/C(C)=C/C=C\[C@H](OC)[C@@H](OC(N)=O)/C(C)=C/[C@@H]1C)C2=O
6.49

Item under review: CO[C@H]1/C=C\C=C(/C)C(=O)NC2=CC(=O)C(NCCc3c[nH]cn3)=C(C[C@@H](C)C[C@H](OC)[C@H](O)[C@@H](C)/C=C(\C)[C@@H]1OC(N)=O)C2=O (stereo in doubt) . Reported pKd?
6.10
